Tested on: SNB-75 CNS
experimental-details: NCI-60 one-dose screen, 48 h
run-parameters: 10 µM unless noted
Procedure: Growth inhibition of the SNB-75 human tumor cell line is measured as a screen for anti-cancer activity. Cells are grown in 96 well plates and exposed to the test compound for 48 hours. Compounds are tested at a single concentration, which is 10^-5 M for most compounds. The reported endpoint is percent growth (GI% or GIPRCNT), where numbers from 0 - 100% represent growth inhibition, and numbers from -100% - 0 represent cell death. For example, a value of 40 represents 60% growth inhibition. […]
About 83,000 compounds went through this panel and 20% of them were active in at least one assay; those are over-represented in the sample as a whole. Active and inactive are the calls of the source. How the source made its calls: active means growth percent below 10; inactive means the rest.
Give your call using only these classes: 1 (yes) for active, 0 (no) for inactive

Give the logged outcome of this assay for the following compound: CN(C)c1nc(-c2cccs2)n2nc(-c3ccco3)cc2n1
0 (no)

Then this compound: O=C1C(Cl)=C(Nc2cccc3ccccc23)C(=O)c2ccccc21
0 (no)

How about this compound: COc1ccc(-c2nc(SCCC(C)C)nc(Nc3ccc(C(=O)O)cc3)c2C#N)cc1
0 (no)

What do you get for COc1cc2c(cc1OC)-c1cc(OC)c(OC)cc1C(CN(C)C)C2 (stereo unspecified) ?
1 (yes)

Now the compound Cc1ccc(C)c2c1SC1=NNC(Oc3ccc(Cl)cc3)=C(C#N)C(=N)N12
0 (no)

Also check CC(C)N(C(=S)SSC(=S)N(C(C)C)C(C)C)C(C)C
0 (no)

Here is the next compound: Cc1ccc(Nc2cccc3ccccc23)cc1
0 (no)

# repeat for CCN(CC)c1ccc(/C=N/N=C(N)N)cc1
0 (no)

# repeat for CC(=O)c1ccc(Br)c([N+](=O)[O-])c1
0 (no)

Next compound: O=C(Nc1ccc(-n2ccc3c(NC(=O)c4ccccc4)nccc32)cc1)c1ccc(N2CCOCC2)c(C(F)(F)F)c1
0 (no)

Another: COc1cccc(-c2nc3sccn3c2-c2ccnc(NCCN3CCCN(C)S3(=O)=O)n2)c1
0 (no)

###

Tested on: SK-MEL-28 melanoma
experimental-details: NCI-60 one-dose screen, 48 h
run-parameters: 10 µM unless noted
Experimental: Growth inhibition of the SK-MEL-28 human tumor cell line is measured as a screen for anti-cancer activity. Cells are grown in 96 well plates and exposed to the test compound for 48 hours. Compounds are tested at a single concentration, which is 10^-5 M for most compounds. The reported endpoint is percent growth (GI% or GIPRCNT), where numbers from 0 - 100% represent growth inhibition, and numbers from -100% - 0 represent cell death. For example, a value of 40 represents 60% growth inhibition. […]
About 83,000 compounds went through this panel and 20% of them were active in at least one assay; those are over-represented in the sample as a whole. Activity calls are given as the source filed them. Rule for the calls: active = growth percent below 10; inactive = the rest.
Select the correct class. Options are Yes = active, No = inactive and nothing else.

Per the assay record, what outcome was assigned to CCN1CCN(Cc2ccc(NC(=O)Nc3ccc(-n4ccc5c(NC(=O)c6ccccc6)nccc54)cc3)cc2C(F)(F)F)CC1 ?
Yes

Same for CS(=O)(=O)c1ccc(C(=O)N/N=C/c2cccc3ccccc23)cc1
No

Continue with CCCCCCCCCCCCCCCCCC(=O)[O][Sn]([CH2]CCC)([CH2]CCC)[CH2]CCC
Yes

// query: CCCCCCCCCCCCCCCCCC(=O)OCCCCCCCCCCCCC
No

Please answer likewise for C/C(=N\Nc1ccc([N+](=O)[O-])cn1)c1ccc(N)cc1
No

Another: CCC(=O)NC1=C(Cl)C(=O)C(NC(=O)CC)=C(Cl)C1=O
Yes

Thanks! And N=c1nc(N2CCCCC2)cc(N)n1O ?
No

Now this one: O/N=C/c1ccncc1
No

And for OCCN(CCO)c1ccc2ccccc2c1 ?
No

Try Cc1ccsc1C(=O)CC(=O)C(F)(F)C(F)(F)C(F)(F)F next.
No

Next up: COc1cccc(C2C(C#N)=C(N)Oc3cc4c(cc32)OCO4)c1 (stereo unspecified)
No

###

System: NCI-H23 lung
experimental-details: NCI-60 one-dose screen, 48 h (100 = growth as untreated, 0 = no growth, -100 = all killed)
run-parameters: 10 µM unless noted
About 83,000 compounds went through this panel and 20% of them were active in at least one assay; those are over-represented in the sample as a whole.
measured-metric: growth (%)
Could you give me the number in %? Just the number is fine.

Returns the measured growth for the input molecule. Input: COc1ccc2[nH]cc(C3(c4c[nH]c5ccc(OC)cc45)C(=O)Nc4ccc(F)cc43)c2c1
97

// same read-out, input: O=C1SCN(Cc2ccccc2)CN1Cc1ccccc1
91.2

Then what about the molecule Cc1c(C(=O)CCl)c(=O)n(-c2ccccc2)n1C ?
72.7

Next molecule: Cn1c(-c2ccccc2)cc(=O)n1-c1ccccc1
96

Let us now turn to CCOC(=O)c1ccc(NC(=O)CSC(N)=O)cc1
95.8

Could you do the same for CC(C)CCSc1nc(-c2ccc(F)cc2)c(C#N)c(N2CCN(C)CC2)n1 , please?
91.5

Try this molecule too: C#CCNc1nc(NCCNC(=O)CCl)nc(N(C)CCCCc2ccccc2)n1
84.7

Entry CC1(C)CN(CCNc2nccc(-c3c(-c4cccc(O)c4)nc4sccn34)n2)S(=O)(=O)N1 please
70

Please answer likewise for S=C(S)Oc1cccc2cccnc12
106

Cool, now O=C(CC(=O)c1ccccc1F)Nc1ccc([N+](=O)[O-])cc1
105

Query CCCCCCCOc1cccc(/C=C2\N=C3SCCCN3C2=O)c1 next
97.3

###

Test system: RXF 393 renal
experimental-details: NCI-60 one-dose screen, 48 h
run-parameters: 10 µM unless noted
This is part of a sample that, as a whole, favours compounds with a hit. Of some 83,000 tested, about 20% had one in any assay. Activity calls are given as the source filed them. How the source made its calls: active means growth percent below 10; inactive means the rest.
// allowed return values: active, inactive

# fetch the recorded call for CC(=O)Oc1c(Cl)c(Cl)c(Cl)c(Cl)c1Cl here
inactive

Subsequent entry: C=CCCCCOc1cccc(/C=C2\N=C3SCCCN3C2=O)c1
inactive

Check CCCCCCCCCCCCCC too.
inactive

Another compound to check: CCOC(=O)c1ccc2c(c1)nc(-c1ccc(Cl)cc1)n2-c1cc(C(C)(C)C)[nH]n1
inactive

Same lookup for COc1cc2c(=O)n(CCCN(C)C)c3c4cc[nH]c4ncc3c2cc1OC , please.
inactive

For CC(C)(C)OC(=O)N1CCCN(CCNc2nccc(-c3c(-c4cccc(O)c4)nc4sccn34)n2)S1(=O)=O then?
inactive

Repeat with CCCCCCCCCCCCCC1=NC(C)(C)CN1C(C)C
active

Repeat with COc1ccc(-c2cc(-c3cn(-c4cccc(Cl)c4)nc3-c3ccc(OC)cc3)[nH]c(=S)n2)cc1
inactive

Note, next up: C=C[C@H]1CCC/C=C/[C@@H]2C[C@H](O)C[C@H]2[C@H](O)/C=C/C(=O)O1
active

Check CCCCSc1ncnc2c1ncn2C1CCCCO1 (stereo not drawn) too.
inactive

Then this compound: COc1ccc(-c2nc3ccccc3n3cccc23)cc1
inactive

Let us now turn to N=C(N)c1ccc(-c2ccc(-c3ccco3)o2)cc1F
inactive

One more compound: Cc1c(C(=O)Nc2ccccc2F)sc2c(=O)[nH]cnc12
inactive

Next compound: Clc1ccc(-c2cnc3c(-c4ccnc(N5CCNCC5)c4)cnn3c2)cc1
active

Cool, now CCN(CC)C(=O)O/N=C(/C)c1ccccc1
inactive

Now the same for COc1cc(NC(=O)CSc2nc3ccc(Cl)cc3c(=O)n2-c2ccccc2)cc(OC)c1OC
inactive

Again, but for COc1ccc2nc3ccccc3c(NCc3ccc(Cl)cc3)c2c1
active

Same question for O=C(CSc1nc2c(n1Nc1ccccc1)-c1ccccc1SC2)Nc1nccs1 please.
inactive

Input CCCCCCCCCCCCNC(=O)N[C@H](C(=O)N[C@H]1/C=C/OCCNC(=O)/C=C/[C@H](C(C)C)NC1=O)C(C)C
inactive

// query: COc1cc(Cl)cc(-c2nn(C(=O)NCCN3CCOCC3)cc2-c2ccncc2)c1
inactive

Entry to check: N/C(=N\OC(=O)c1ccccc1)C(Cc1ccccc1)C(=O)NOC(=O)c1ccccc1 (stereo not drawn)
inactive

Would you kindly repeat that for N/C(=C\C(=O)n1nc(-c2ccccc2)cc1N)c1ccccc1 ?
inactive

What do you have for COc1cc(-c2nn(C(=O)NCCN3CCN(C)CC3)cc2-c2ccncc2)ccc1Cl ?
inactive

Now the compound Oc1ccccc1-c1nnc(COc2ccc(Cl)cc2Cl)o1
inactive

Now give it for O=C(N/N=C/c1ccc([N+](=O)[O-])cc1)c1ccccc1Nc1ccnc(C(F)(F)F)c1 too.
inactive

Follow-up item: COC(=O)c1ccc2c(c1)nc(-c1cc3ccccc3[nH]c1=O)n2-c1cc(C(C)(C)C)[nH]n1
inactive

Quick one: O=C1NN(C(=O)c2ccccc2)C(c2ccc(Cl)c(Cl)c2)=C/C1=C\c1ccccc1[N+](=O)[O-]
active

Consider next the compound CCN1C(=O)N(CC)C2C1N=C(SC)N2/N=C/C=C/c1ccccc1OC (stereo not drawn) in the same way.
inactive

Now consider COc1cc(CN(CCC(O)N2CCCC2=O)Cc2ccc3c(c2)OCO3)cc(OC)c1OC (stereo not drawn) .
inactive

And for CN1C(=O)C(C(=O)/C=C/c2ccccc2C(=O)O)C(=O)N(C)C1=O ?
inactive

Here is the next compound: NNC(=O)CSc1nc2scc(-c3ccccc3)c2c(=O)n1-c1ccccc1
active

Query CCS(=O)(=O)Nc1cccc(Nc2c3cccc(C)c3nc3c(C)cccc23)c1OC next
inactive

Now the compound Nc1c(C(=O)Nc2cccc(Cl)c2)sc2nc3c(cc12)C(=O)CCC3
inactive

Param item: CCCCCCCCCCCC1=NC(C)(C)CN1C(C)C
active

Again, but for COc1ccc(-c2cc(C(=O)Nc3ccc(C)cc3)nc3[nH]c(=O)sc23)cc1
inactive

Now the compound Cc1cc(N)cc(C)c1-c1c(Br)cc(N)cc1Br
active

Item: CCCCOc1nc2ccc(C)cc2cc1/C=C/C(=O)/C=C(O)/C=C/c1cc2cc(C)ccc2nc1OCCCC
inactive

Lookup COc1ccc2[nH]cc(C3(c4c[nH]c5ccc(OC)cc45)C(=O)Nc4ccc(Cl)cc43)c2c1
inactive

// repeat for CC(C)c1ccc(-c2cnc3nonc3n2)cc1 and report
inactive

Quick one: CC1(C)OC2OC3C(CN)OC(c4ccccc4)OC3C2O1 (stereo not drawn)
inactive

// next record CC(C)(C)c1ccc(OC(=O)Nc2ccccc2)cc1
inactive

# iterate: CCN(CC)c1cc(C)c(Cc2c(OC)ccc3ccccc23)cc1C
inactive

Query O=C(NO)c1ccc(CNc2cccc3nc(C4CC4)n(-c4ccccc4)c(=O)c23)cc1 next
active
